target: human ERα (Homo sapiens); experiment: Competitive radiometric binding assay with [3H]-estradiol tracer, ERα; settings: RBA of estradiol set to 100%; 2 nM [3H]-estradiol, 18–24 h at 0 °C
Sequence (P03372 whole entry): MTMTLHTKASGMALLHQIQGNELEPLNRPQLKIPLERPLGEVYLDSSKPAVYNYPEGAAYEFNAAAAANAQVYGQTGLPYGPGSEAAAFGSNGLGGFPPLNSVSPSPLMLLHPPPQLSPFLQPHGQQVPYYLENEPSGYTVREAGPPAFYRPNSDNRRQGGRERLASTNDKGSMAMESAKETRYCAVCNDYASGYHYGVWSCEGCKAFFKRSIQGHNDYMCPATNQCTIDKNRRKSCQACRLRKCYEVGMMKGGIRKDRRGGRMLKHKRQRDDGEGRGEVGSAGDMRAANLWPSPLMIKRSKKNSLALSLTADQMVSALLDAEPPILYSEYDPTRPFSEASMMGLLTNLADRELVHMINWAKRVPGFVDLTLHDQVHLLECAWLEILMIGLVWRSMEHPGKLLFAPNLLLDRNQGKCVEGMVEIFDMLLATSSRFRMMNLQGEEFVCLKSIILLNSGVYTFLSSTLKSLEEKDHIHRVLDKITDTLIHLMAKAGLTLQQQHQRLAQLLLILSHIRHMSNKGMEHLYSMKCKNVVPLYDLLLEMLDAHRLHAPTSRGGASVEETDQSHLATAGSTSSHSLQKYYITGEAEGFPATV
Given measured RBA (mean ± SD) ERα, output true if it is greater than or equal to 0.01% and false if not.

Here are 4 molecules together with their reported answers.
O=C1C[C@@H](c2ccc(O)cc2)Oc2cc(O)ccc21 [Liq, Liquiritigenin, reference compound] :: false
COc1c(CC=C(C)C)c(O)cc(O)c1-c1coc2cc(O)ccc2c1=O :: false
COc1c(CC=C(C)C)c(O)cc2oc(=O)c(-c3ccc(O)cc3O)cc12 :: true
CC1(C)C=Cc2c(ccc3c2OC[C@@H](c2ccc(O)cc2O)C3)O1 :: true

Enquiry: Check the entry COc1ccc(C2COc3cc(O)ccc3C2)c(O)c1 (stereo not shown) : does RBA (mean ± SD) ERα equal or exceed 0.01%?
Return: true
